Assay: Steady state PK in rat CIA model
Type: in vivo
Conditions: plasma, PO 10 mg/kg/day
Measured Cmax, listed per entry.
Measure: Cmax

INSERT INTO assay_data (smiles_representation, measure, result_value) VALUES
  ('O=C(Nc1nc2cccc(-c3ccc(CN4CCS(=O)(=O)CC4)cc3)n2n1)C1CC1', 'Cmax', '1170 ng/mL'),
  ('O=C(Nc1nc2cccc(-c3ccc(CN4CCOCC4)cc3)n2n1)C1CC1', 'Cmax', '867 ng/mL');

---

Experiment: Pharmacokinetic study in rodents
Type: in vivo, rat
Details: male, plasma; Sprague-Dawley rat, PO 5 mg/kg
Measure: Tmax (min)

INSERT INTO results (molecule, result_value) VALUES
  ('O=C(Nc1nc2cccc(-c3ccc(CN4CCS(=O)(=O)CC4)cc3)n2n1)C1CC1 [Compound 1]', 132),
  ('O=C(Nc1nc2cccc(-c3ccc(CN4CCC(F)(F)CC4)cc3)n2n1)C1CC1 [Compound 11]', 15),
  ('O=C(Nc1nc2cccc(-c3ccc(CN4CCOCC4)cc3)n2n1)C1CC1 [Compound 2]', 19.8);

---

Assay: Steady state PK in rat CIA model
Assay type: in vivo
Settings: plasma, PO 30 mg/kg/day, read-out: AUC (0-24 h)
As shown below, each of these compounds has a reported AUC(0-t) value.
Measure: AUC(0-t)

INSERT INTO measurements (compound, measure, result_value) VALUES
  ('O=C(Nc1nc2cccc(-c3ccc(CN4CCS(=O)(=O)CC4)cc3)n2n1)C1CC1 [Compound 1]', 'AUC(0-t)', '27800 ng·h/mL'),
  ('O=C(Nc1nc2cccc(-c3ccc(CN4CCOCC4)cc3)n2n1)C1CC1 [Compound 2]', 'AUC(0-t)', '7810 ng·h/mL');

---

Experiment: Steady state PK in rat CIA model
Assay type: in vivo
Details: plasma, PO 1 mg/kg/day, read-out: T½ (converted)
Measure: half-life

INSERT INTO measurements (smiles_representation, measure, result_value) VALUES
  ('O=C(Nc1nc2cccc(-c3ccc(CN4CCS(=O)(=O)CC4)cc3)n2n1)C1CC1', 'half-life', '3.6 h');

---

Experiment: Steady state PK in rat CIA model
Format: in vivo
Details: plasma, PO 0.3 mg/kg/day, read-out: AUC (0-24 h)
Measure: AUC(0-t)

INSERT INTO measurements (compound, measure, result_value) VALUES
  ('O=C(Nc1nc2cccc(-c3ccc(CN4CCS(=O)(=O)CC4)cc3)n2n1)C1CC1 [Compound 1]', 'AUC(0-t)', '0.163 µg·h/mL');

---

In this section, each of the compounds is paired with its reported percentage of compound remaining after 60 min, Human.
Experiment: Microsomal stability, human
Type: in vitro ADME
Details: human liver microsomes, 3 μM compound
Measure: percentage of compound remaining after 60 min, Human (%)

INSERT INTO assay_data (smiles_representation, result_value) VALUES
  ('O=C(Nc1nc2cccc(-c3ccc(CN4CCOCC4)cc3)n2n1)C1CC1', 73),
  ('O=C(Nc1nc2cccc(-c3ccc(CN4CCC(F)(F)CC4)cc3)n2n1)C1CC1', 51),
  ('O=C(Nc1nc2cccc(-c3ccc(C(=O)N4CCS(=O)(=O)CC4)cc3)n2n1)C1CC1', 102),
  ('O=C(Nc1nc2cccc(-c3ccc(CN4CCS(=O)(=O)CC4)cc3)n2n1)C1CC1', 87.2);

---

Assay: Steady state PK in rat CIA model
Assay type: in vivo
Settings: plasma, PO 0.1 mg/kg/day
Measure: Cmax (ng/mL)

INSERT INTO measurements (smiles_representation, measure, result_value) VALUES
  ('O=C(Nc1nc2cccc(-c3ccc(CN4CCS(=O)(=O)CC4)cc3)n2n1)C1CC1', 'Cmax', 5.18);

---

Experiment: Pharmacokinetic study in rodents
Assay type: in vivo, rat
Settings: male, plasma; Sprague-Dawley rat, IV 1 mg/kg; read-out: AUC (0-z)
Measure: AUC (ng·h/mL)

INSERT INTO results (smiles_representation, measure, unit_of_measurement, result_value) VALUES
  ('O=C(Nc1nc2cccc(-c3ccc(CN4CCS(=O)(=O)CC4)cc3)n2n1)C1CC1', 'AUC', 'ng·h/mL', 722),
  ('O=C(Nc1nc2cccc(-c3ccc(CN4CCOCC4)cc3)n2n1)C1CC1', 'AUC', 'ng·h/mL', 470);

---

Test: Steady state PK in rat CIA model
Format: in vivo
Conditions: plasma, PO 3 mg/kg/day
Measure: Tmax (h)

INSERT INTO assay_data (smiles_representation, measure, result_value) VALUES
  ('O=C(Nc1nc2cccc(-c3ccc(CN4CCS(=O)(=O)CC4)cc3)n2n1)C1CC1', 'Tmax', 1);

---

Assay: Pharmacokinetic study in rodents
Type: in vivo, rat
Details: male, plasma; Sprague-Dawley rat, IV 1 mg/kg (C0); read-out: C0 or Cmax
Recorded Cmax values for a group of molecules are listed next.
Measure: Cmax (ng/mL)

INSERT INTO assay_data (molecule, unit_of_measurement, result_value) VALUES
  ('O=C(Nc1nc2cccc(-c3ccc(CN4CCOCC4)cc3)n2n1)C1CC1 [Compound 2]', 'ng/mL', 863),
  ('O=C(Nc1nc2cccc(-c3ccc(CN4CCS(=O)(=O)CC4)cc3)n2n1)C1CC1 [Compound 1]', 'ng/mL', 1410);

---

Experiment: Steady state PK in rat CIA model
Format: in vivo
Details: plasma, PO 30 mg/kg/day
Measure: Tmax (h)

INSERT INTO measurements (smiles_representation, measure, result_value) VALUES
  ('O=C(Nc1nc2cccc(-c3ccc(CN4CCOCC4)cc3)n2n1)C1CC1', 'Tmax', 1),
  ('O=C(Nc1nc2cccc(-c3ccc(CN4CCS(=O)(=O)CC4)cc3)n2n1)C1CC1', 'Tmax', 1);

---

Reported Tmax is given for each of the following compounds.
Assay: Steady state PK in rat CIA model
Type: in vivo
Details: plasma, PO 10 mg/kg/day
Measure: Tmax (h)

INSERT INTO results (compound, result_value) VALUES
  ('O=C(Nc1nc2cccc(-c3ccc(CN4CCOCC4)cc3)n2n1)C1CC1 [Compound 2]', 1),
  ('O=C(Nc1nc2cccc(-c3ccc(CN4CCS(=O)(=O)CC4)cc3)n2n1)C1CC1 [Compound 1]', 1);

---

Assay: Aqueous solubility
Assay type: physicochemical
Conditions: 37 °C, aqueous buffer, kinetic from dmso stock; 0.1M citrate buffer pH 3.0; read-out: Aqueous solubility pH 3.0
Measured solubility at 1 h values are reported for all entries that follow.
Measure: solubility at 1 h

INSERT INTO assay_data (smiles_representation, measure, result_value) VALUES
  ('O=C(Nc1nc2cccc(-c3ccc(C(=O)N4CCS(=O)(=O)CC4)cc3)n2n1)C1CC1', 'solubility at 1 h', '> 87.9 µg/mL'),
  ('O=C(Nc1nc2cccc(-c3ccc(CN4CCS(=O)(=O)CC4)cc3)n2n1)C1CC1', 'solubility at 1 h', '> 85 µg/mL'),
  ('O=C(Nc1nc2cccc(-c3ccc(CN4CCOCC4)cc3)n2n1)C1CC1', 'solubility at 1 h', '> 38 µg/mL');

---

Measured Papp at 1 h, 10 µM, listed per entry.
Assay: Caco2 permeability
Assay type: in vitro ADME
Conditions: human, pH 7.4; Caco-2, 10 μM, 1 hr
Measure: Papp at 1 h, 10 µM

INSERT INTO measurements (compound, result_value) VALUES
  ('O=C(Nc1nc2cccc(-c3ccc(CN4CCS(=O)(=O)CC4)cc3)n2n1)C1CC1 [Compound 1]', '3.33 ×10⁻⁶ cm/s'),
  ('O=C(Nc1nc2cccc(-c3ccc(C(=O)N4CCS(=O)(=O)CC4)cc3)n2n1)C1CC1 [Compound 10]', '0.05 ×10⁻⁶ cm/s'),
  ('O=C(Nc1nc2cccc(-c3ccc(CN4CCOCC4)cc3)n2n1)C1CC1 [Compound 2]', '25 ×10⁻⁶ cm/s'),
  ('O=C(Nc1nc2cccc(-c3ccc(CN4CCC(F)(F)CC4)cc3)n2n1)C1CC1 [Compound 11]', '36.5 ×10⁻⁶ cm/s');

---

Assay: Steady state PK in rat CIA model
Assay type: in vivo
Settings: plasma, PO 0.1 mg/kg/day, read-out: AUC (0-24 h)
Measure: AUC(0-t)

INSERT INTO results (smiles_representation, result_value) VALUES
  ('O=C(Nc1nc2cccc(-c3ccc(CN4CCS(=O)(=O)CC4)cc3)n2n1)C1CC1', '30 ng·h/mL');

---

Assay: Microsomal stability, rat
Type: in vitro ADME
Details: rat liver microsomes, 3 μM compound
Measure: percentage of compound remaining after 60 min, Rat (%)

INSERT INTO assay_data (molecule, result_value) VALUES
  ('O=C(Nc1nc2cccc(-c3ccc(CN4CCS(=O)(=O)CC4)cc3)n2n1)C1CC1 [Compound 1]', 65.6),
  ('O=C(Nc1nc2cccc(-c3ccc(CN4CCC(F)(F)CC4)cc3)n2n1)C1CC1 [Compound 11]', 26),
  ('O=C(Nc1nc2cccc(-c3ccc(CN4CCOCC4)cc3)n2n1)C1CC1 [Compound 2]', 38),
  ('O=C(Nc1nc2cccc(-c3ccc(C(=O)N4CCS(=O)(=O)CC4)cc3)n2n1)C1CC1 [Compound 10]', 89);

Data provenance is patent US8563545B2.
